Tested on: CP247
Assay Method Text: qHTS profiling for inhibitors of Plasmodium falciparum proliferation (AID 504749); further: nearly all actives have a fitted effect of over 60% in size
Experimental Context: P. falciparum in erythrocytes, SYBR Green DNA, 72 h; series mostly up to 28.7 µM
Records with an inconclusive call do not appear. Activity calls are given as the source filed them. The call rests on the fitted dose curve; in most records, active means well fitted inhibition curve with a large enough effect; inconclusive means small, poorly fitted or top-dose-only effect; inactive means flat fitted curve, though single readings scatter.
Possible outcomes: active, inactive

[
  {
    "Compound": "COc1cccc2c1C(=O)c1c(O)c3c(c(O)c1C2=O)C[C@@](O)(C(=O)CO)C[C@@H]3O[C@H]1C[C@H](N)[C@H](OC2CCCCO2)[C@H](C)O1 (some centres undefined)",
    "Answer Label": "active"
  },
  {
    "Compound": "CCC(C(=O)O)C1CCC(C)C(C(C)C(O)C(C)C(=O)C(CC)C2OC3(C=CC(O)[C@@]4(CC[C@](C)(C5CC[C@@](O)(CC)C(C)O5)O4)O3)C(C)CC2C)O1 (some centres undefined)",
    "Answer Label": "active"
  },
  {
    "Compound": "CCCCCCCCCCCC(CC1OC(=O)C1CCCCCC)OC(=O)C(CC(C)C)NC=O (centres undefined)",
    "Answer Label": "active"
  },
  {
    "Compound": "OCC(O)C(O)C(O)CO (centres undefined)",
    "Answer Label": "inactive"
  }
]
